- study.system: GST-RIPK1 (recombinant GST-RIPK1 kinase domain (residues 1-327)) (Homo sapiens)
- Construct: recombinant GST-RIPK1 kinase domain (residues 1-327) enzyme produced from baculovirus-transfected Sf21 cells
- Sequence (Q13546 1-327): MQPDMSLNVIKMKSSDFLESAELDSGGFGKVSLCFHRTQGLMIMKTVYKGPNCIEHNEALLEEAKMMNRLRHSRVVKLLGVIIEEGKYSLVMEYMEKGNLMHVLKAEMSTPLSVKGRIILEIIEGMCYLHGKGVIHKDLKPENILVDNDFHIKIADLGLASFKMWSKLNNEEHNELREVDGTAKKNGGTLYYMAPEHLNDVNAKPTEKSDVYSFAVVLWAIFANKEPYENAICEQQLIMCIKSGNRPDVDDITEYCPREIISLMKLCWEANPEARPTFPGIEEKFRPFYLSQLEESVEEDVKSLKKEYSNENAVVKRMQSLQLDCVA
- assay.overview: RIPK1-ADP-Glo Enzymatic Assay
- run.parameters: ten-point titration, top compound concentration of 100000 nM; 25 nM GST-RIPK1, 300 μM ATP, 3 μM dephosphorylated-MBP; 30 min pre-incubation, 150 min reaction
pEC50: −log10 of the molar value.
parameter.measured: pEC50

{"compound": "O=C1N2[C@H](O[C@]13C[C@@H](OCc1ccccc1)C3)[C@H](O)C[C@H]2c1cnccn1 [Example 21.2]", "pEC50": 6.97}
{"compound": "O=C1N2C(CC[C@H]2c2cnccn2)OC12CC(OCc1csc(C3CC3)n1)C2 (stereo partly shown) [Example 18.71]", "pEC50": 6.10}
{"compound": "Cc1nc2c(OC3CC4(C3)O[C@@H]3CC[C@@H](c5cc(F)cc(F)c5)N3C4=O)ncnc2s1 (stereo partly shown) [Example 9.7]", "pEC50": 6.70}
{"compound": "O=C1N2C(CC[C@H]2c2cnccn2)OC12CC(OCc1nnc(Cc3ccccc3)s1)C2 (stereo partly shown) [Example 18.12]", "pEC50": 6.74}
{"compound": "Cc1cc(OC2CC3(C2)O[C@@H]2CC[C@@H](c4ccccc4)N2C3=O)ccc1F (stereo partly shown) [Example 8.13]", "pEC50": 7.21}
{"compound": "O=C1N2C(CC[C@H]2c2cnccn2)OC12CC(OCc1ccc(N3CCOCC3)nc1)C2 (stereo partly shown) [Example 18.35]", "pEC50": 7.85}

P = O=C1N2[C@@H](CC[C@H]2c2cncc(F)c2)OC12CCC(Oc1ccccc1)CC2 (single isomer, unassigned) [Example 16.3]
Q = O=C1N2[C@@H](CC[C@H]2c2cnccn2)OC12CC(Oc1cc(F)ccc1F)C2 (stereo partly shown) [Example 12.6]
Qu. # returns the entry with the larger pEC50; inputs P and Q Respond with the label that goes with your answer.
Ans. Q
(Q: 7.80, P: 7.21)

P = N#CCCc1ccc(COC2CC3(C2)OC2CC[C@@H](c4cnccn4)N2C3=O)cc1 (stereo partly shown) [Example 18.47]
Q = N#Cc1ccc(COC2CC3(C2)OC2CC[C@@H](c4cnccn4)N2C3=O)c2cccnc12 (stereo partly shown) [Example 18.65]
Qu. From the items above, decide which of P and Q has the lower pEC50 reading. Respond with the label that goes with your answer.
Ans. P
(P: 7.22, Q: 7.49)

1 = O=C1N2C(CC[C@H]2c2cnccn2)OC12CC(OCc1cccc3cncc(F)c13)C2 (stereo partly shown) [Example 18.21]
2 = N#Cc1ccnc(O[C@H]2C[C@@]3(C2)O[C@@H]2CC[C@@H](c4cc(F)cc(F)c4)N2C3=O)n1 [Example 9.57]
Qu. # returns the entry with the larger pEC50; inputs 1 and 2 Respond with the label that goes with your answer.
Ans. 1

P = O=C1N2C(CCC2c2ccc(F)cn2)OC12CC(Oc1ncnn3cccc13)C2 (stereo not shown) [Example 9.65]
Q = Cc1ccc(OC2CC3(C2)O[C@@H]2CC[C@@H](c4ccn(C)n4)N2C3=O)cn1 (stereo partly shown) [Example 19.12]
Qu. From the items above, decide which of P and Q has the lower pEC50 reading. Respond with the label that goes with your answer.
Ans. Q
(Q: 6.10, P: 7.89)

P = O=C1N2[C@@H](CC[C@H]2c2cc(F)cc(F)c2)O[C@]12C[C@H](Oc1cccc3ncnn13)C2 [Example 9.26]
Q = O=C1N2[C@@H](CC[C@H]2c2cnccn2)OC12CC(OCc1ccc3scnc3c1)C2 (stereo partly shown) [Example 20.7]
R = N#CC1(c2ccc(COC3CC4(C3)OC3CC[C@@H](c5cnccn5)N3C4=O)cn2)CCC1 (stereo partly shown) [Example 18.28]
Qu. Arrange these 3 compounds in increasing order of pEC50. Put the labels in the requested order and list them out.
Ans. P, R, Q

1 = O=C1N2[C@@H](CC[C@H]2c2cc(F)cc(F)c2)OC12CC(Oc1ccnc3c(F)cnn13)C2 (single isomer, unassigned) [Example 9.5]
2 = CS(=O)(=O)c1ccc(COC2CC3(C2)OC2CC[C@@H](c4cnccn4)N2C3=O)cc1 (stereo partly shown) [Example 18.67]
3 = Cc1nnc(-c2cc(O[C@H]3C[C@@]4(C3)O[C@@H]3CC[C@@H](c5cc(F)cc(F)c5)N3C4=O)ncn2)o1 [Example 9.53]
4 = CC(OC1CC2(C1)OC1CCC(c3cc(F)cc(F)c3)N1C2=O)c1ccccc1 (single isomer, unassigned) [Example 15.4]
5 = O=C1N2[C@@H](CC[C@H]2c2cnccn2)OC12CC(OCC1CCCC1)C2 (single isomer, unassigned) [Example 23.4]
Qu. Arrange these 5 compounds in increasing order of pEC50. Put the labels in the requested order and list them out.
Ans. 5, 1, 2, 3, 4

1 = CCc1nnc(-c2ccc(COC3CC4(C3)OC3CC[C@@H](c5cnccn5)N3C4=O)cc2)o1 (stereo partly shown) [Example 18.56]
2 = O=C1N2[C@@H](CC[C@H]2c2ccccc2)OC12CC(Oc1nccc3nccn13)C2 (stereo partly shown) [Example 8.20]
Qu. # returns the entry with the larger pEC50; inputs 1 and 2 Respond with the label that goes with your answer.
Ans. 1

These entries and their values trace back to patent US20250154173A1.
